Each recorded value in this set is attributed to PubChem BioAssay.

# test: basal MM1S mitochondrial membrane potential changes, profiling panel, cell-based, JC-1 fluorescence, 24 h, 100 nL compound (AID 1170); also: test concentration not given here
# experimental setup: higher = more signal
observable: z-score

# example entries with known answers
COCCOC(=O)N1C(=O)[C@@]2(c3ccccc31)[C@H](c1ccccc1OCCO)N1[C@H](c3ccccc3)[C@H](c3ccccc3)OC(=O)[C@H]1[C@@H]2C(=O)N1CCN(c2ncccn2)CC1 : -1.36
O=C1O[C@@H](c2ccccc2)[C@@H](c2ccccc2)N2[C@@H](c3ccccc3OCCO)[C@]3(C(=O)Nc4ccccc43)[C@@H](C(=O)Nc3nc4ccccc4s3)[C@H]12 : -1.54
COc1ccc(-c2cc3c(c(-c4ccc(Oc5ccccc5)cc4)n2)[Si](C(C)C)(C(C)C)OC3)cn1 : -0.973

// each listed molecule needs a value for z-score
1. NC(=O)N1C(=O)C2C(C1=O)C1C=C(c3ccc(CO)cc3)C2C(c2cccs2)N1Cc1cccc(OC(F)(F)F)c1 (configuration not stated)
2. CC1(C)C2C=C(C(O)C3C=CC4C(=O)NC(=O)C4N3Nc3ccc(Cl)cc3Cl)C[C@@H]1C2 (some centres not stated)
3. CCOC(=O)C[C@H]1[C@H](OC(=O)c2ccccc2-c2ccccc2)[C@@H](NC(=O)CC(C)C)c2cc(OCCCO)ccc2N1C(=O)Cc1ccc(OC)cc1
4. O=C1C[C@@](C(=O)NCC(F)(F)F)(c2ccc([N+](=O)[O-])cc2)[C@@H](c2ccc(CO)cc2I)N1C1CCCCC1

1. -1.67
2. -1.04
3. 0.32
4. -1.02

###

# test target: Focal adhesion kinase 1 (Homo sapiens) (UniProt Q05397)
# Sequence (Q05397 whole entry, looked up): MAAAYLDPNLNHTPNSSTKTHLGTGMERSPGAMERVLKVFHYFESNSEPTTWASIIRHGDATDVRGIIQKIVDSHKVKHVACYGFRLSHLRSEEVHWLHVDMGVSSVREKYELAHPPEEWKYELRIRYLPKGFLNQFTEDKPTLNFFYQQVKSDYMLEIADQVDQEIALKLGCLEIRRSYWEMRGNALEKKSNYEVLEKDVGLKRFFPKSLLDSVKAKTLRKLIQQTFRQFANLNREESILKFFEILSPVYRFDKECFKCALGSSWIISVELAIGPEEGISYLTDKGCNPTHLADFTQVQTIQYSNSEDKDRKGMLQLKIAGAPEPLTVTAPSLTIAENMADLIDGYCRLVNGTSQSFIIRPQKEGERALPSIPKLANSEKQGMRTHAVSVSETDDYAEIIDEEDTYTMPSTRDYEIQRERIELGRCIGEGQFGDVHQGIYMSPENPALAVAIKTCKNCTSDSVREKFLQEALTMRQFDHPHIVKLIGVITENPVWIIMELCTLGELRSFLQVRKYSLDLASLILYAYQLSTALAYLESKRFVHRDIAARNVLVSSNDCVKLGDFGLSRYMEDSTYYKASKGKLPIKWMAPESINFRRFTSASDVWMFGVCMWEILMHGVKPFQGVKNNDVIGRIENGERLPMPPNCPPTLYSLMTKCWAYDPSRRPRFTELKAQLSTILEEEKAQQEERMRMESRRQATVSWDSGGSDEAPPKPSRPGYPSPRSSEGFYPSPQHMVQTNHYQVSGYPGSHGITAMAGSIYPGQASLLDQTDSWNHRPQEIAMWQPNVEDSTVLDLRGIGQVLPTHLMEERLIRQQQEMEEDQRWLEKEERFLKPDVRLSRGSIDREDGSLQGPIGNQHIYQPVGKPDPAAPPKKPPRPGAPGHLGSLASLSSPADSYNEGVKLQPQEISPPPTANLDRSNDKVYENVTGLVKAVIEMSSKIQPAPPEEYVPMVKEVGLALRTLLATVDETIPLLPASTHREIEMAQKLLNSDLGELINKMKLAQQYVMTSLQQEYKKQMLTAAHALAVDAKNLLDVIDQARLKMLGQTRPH
# test: small-molecule microarray binders of FAK, primary screen, biochemical, 635/667 nm fluorescence, BSA, DTT (AID 1130);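 also: composite of spot emission at 667 nm and signal to noise over triplicate slides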
# experimental setup: PTK2 binding, 635 nm fluorescence, higher = more signal
observable: composite z-score
Numbers only.

Example entries begin here.
Cc1ccc(S[C@]2(C(=O)NCCCN(C)C)CC(=O)N(Cc3cc(C(F)(F)F)cc(C(F)(F)F)c3)[C@@H]2c2ccc(CO)cc2I)cc1 : -0.0785
O=C(CS)NCCCCCCNC(=O)[C@@H]1C[C@@H]2C(=O)N[C@@H](Cc3ccccc3)C(=O)N2[C@@H]1c1cccc(OCCO)c1 : 0.385
O=C1NC(=O)C2C1C=CC(C(O)c1cc(C(F)(F)F)cc(C(F)(F)F)c1)N2Nc1ccccn1 (centres undefined) : 0.187

Batch: composite z-score for all items listed.
1. CC(C)C(O)C1C=CC2C(=O)NC(=O)C2N1Nc1ccc(Cl)cc1Cl (centres undefined)
2. C=C(CCCC)/C(=C/C[C@H](OC(C)=O)c1ccccc1OCCO)c1cc(C(=O)OC)ccc1OC

1: 1.08; 2: -0.0155

Dear reader, for each entry below, please note its composite z-score.
1. COC(=O)[C@@]1(Cc2ccc(OC)cc2)[C@H]2c3cc(C(=O)N(C)C)n(C)c3C[C@H]2CN1C(=O)c1ccccc1
2. C=C(COC)C(=O)CC[C@@H](OC(C)=O)c1ccc(CO)o1
3. C[C@H]1NC(=O)[C@@]23C(=O)N[C@@H](Cc4ccccc4)C2[C@H](C)[C@@]2(C)O[C@H]2C3/C=C/C/C=C\CNC(=O)[C@@H]2CCCN2C1=O (some centres undefined)
4. CCOC(=O)C[C@H]1[C@H](OC(=O)c2ccc(C(=O)c3ccccc3)cc2)[C@@H](NC(=O)c2ccc3ccccc3c2)c2cc(OCCCO)ccc2N1C(=O)Cc1ccc(OC)cc1
5. COC(=O)[C@@]1(Cc2ccc(F)cc2)[C@H]2c3cc(C(=O)N4CCCC4)n(CCCNc4ncc(C(F)(F)F)cc4Cl)c3C[C@H]2CN1C(=O)c1ccccc1
6. COCCOC(=O)N1C(=O)[C@@]2(c3cc(C#CCC(C(=O)OC)C(=O)OC)ccc31)[C@H](C(=O)Nc1nc3ccccc3s1)[C@H]1C(=O)O[C@H](c3ccccc3)[C@H](c3ccccc3)N1[C@@H]2c1ccccc1OCCO
7. C=CC[C@]1(C(=O)NCc2ccccc2)N=C(c2ccc(OCCCO)cc2)O[C@H]1c1ccccc1N=[N+]=[N-]

1. 0.698
2. -0.285
3. 0.0122
4. 0.222
5. 0.604
6. 0.714
7. 0.618

Would you mind listing composite z-score for each of the following molecules?
1. CCCC[C@H]1OB(O)C[C@H]2C1=C(COC)Cn1c(=O)n(-c3ccccc3)c(=O)n12
2. COc1ccc(C(=O)Nc2ccc(CN3C(=O)[C@]4(O[C@H](CCO)[C@@H]([Si](C)(C)c5ccc(OC)cc5)[C@@H]4C)c4ccccc43)cc2)cc1

[-0.0429, 0.246]

###

# test: adipocyte viability effects, profiling panel, cell-based, 3T3-L1 adipocytes, calcein-AM fluorescence, 48 h, basal (AID 1163); also: test concentration not given here
# experimental setup: 3T3-L1 adipocytes viability, higher = more signal
Task for the reader: assign each of the following molecules its reported z-score.
Give bare numbers.

// worked examples, z-score included
CC(C)(C)OC(=O)CC[C@]1(C(=O)N2CCOCC2)N=C(c2ccc(OCCCO)cc2)O[C@H]1c1ccccc1N=[N+]=[N-] : 0.232
COCCOC(=O)N1C(=O)[C@@]2(c3cc(C#Cc4ccc(OC)cc4)ccc31)[C@H](c1ccccc1OCCO)N1[C@H](c3ccccc3)[C@H](c3ccccc3)OC(=O)[C@H]1[C@@H]2C(=O)NC[C@H](O)c1ccccc1 : 1.02
C=C(COC)/C(=C/C[C@H](OC(C)=O)c1ccc(CO)o1)c1cc(C(=O)OC)ccc1OC : 0.635

Each of the following entries comes with a recorded value; kindly state z-score for each.
1. C=CCOC(=O)[C@@H]1[C@H]2C(=O)O[C@H](c3ccccc3)[C@H](c3ccccc3)N2[C@H](c2ccc(OCCOC(=O)[C@@H]3C[C@@H]4C(=O)NCC(=O)N4[C@@H]3c3ccc(O)cc3)cc2)[C@@]12C(=O)Nc1ccc(I)cc12
2. CC(C)=CCCC(C)=CC(O)C1C=CC2C(=O)N(C)C(=O)C2N1Nc1ccccc1 (stereo unspecified)
3. C=CCC(OC(C)=O)[C@@H]1[C@@H](N(Cc2ccc(-c3ccccc3)cc2)C(=O)c2cccc3ccccc23)c2cc(OCCCO)ccc2N1C(=O)c1ccc(-c2ccccc2)cc1 (stereo partly specified)

1. 0.198
2. -1.39
3. 0.286

###

# test target: NADPH oxidase 5 (Homo sapiens)
# test: NOX5-dependent H2O2 signal modulators, primary screen, NOX inhibitor project, cell-based, HEK293-NOX5, Amplex Red fluorescence (AID 1161)
# experimental setup: HEK293-NOX5, ionomycin, 45 min, higher = more signal
Field: z-score. Provide a value for each of the molecules that follow.
Answers are plain numbers.

Give one value of z-score per listed molecule.
1. Cc1ccc(N2C(=O)c3ccccc3[C@@H](C(=O)NC3CC3)[C@@H]2c2ccc(CO)cc2)nc1
2. CCCC[C@@H]1C[C@H]1[C@@H](NC(=O)c1ccco1)c1ccc(-c2ccccc2)cc1

[-1.51, -2]

Need z-score for each of these molecules.
1. C=C(COC)/C(=C/C[C@@H](OC(C)=O)c1ccc(OCCO)cc1)c1cnc2ccccc2c1
2. NC(=O)NCC#Cc1ccc2c(c1)[C@]1(C(=O)N2)[C@H](C(=O)Nc2nc3ccccc3s2)[C@H]2C(=O)O[C@H](c3ccccc3)[C@H](c3ccccc3)N2[C@@H]1c1ccccc1OCCO

1. -1.08
2. -3.4

###

I'd appreciate it if you could supply z-score values for the items below.
# test: osmotic lysis modulators in infected erythrocytes, primary screen, PSAC antagonist project, cell-based, P. falciparum Indochina, OD700, 3 h (AID 1156)
# experimental setup: higher = more signal, called active from +8 up or from −8 down
Calls of active or inactive are those of the source.

CC(C)C[C@@H]1NC(=O)[C@@H]2C[C@H](C(=O)O)[C@H](c3cccc(OCCO)c3)N2C1=O : -0.917 (inactive)

Quick one: give me z-score for each item below, same order please.
1. Oc1ccc2cc[n+](Cc3sc4ccccc4c3Cl)cc2c1
2. CCOC(=O)C[C@H]1[C@H](OC(=O)c2ccc(C(=O)c3ccccc3)cc2)[C@@H](NC(=O)CC(C)C)c2cc(OCCCO)ccc2N1C(=O)c1ccc2ccccc2n1
3. COc1ccc(C(O)C2C=CC3C(=O)N(Cc4ccccc4)C(=O)C3N2n2cnnc2)cc1OCc1ccccc1 (configuration not stated)
4. COC(=O)[C@@]1(Cc2ccc(F)cc2)[C@H]2c3cc(C(=O)N(C)C)n(Cc4ccc(Cl)c(C(F)(F)F)c4)c3C[C@H]2CN1C(=O)c1ccccc1
5. CN1C=C(C(=O)OCCS(C)(=O)=O)C(C(=O)OCCS(C)(=O)=O)=CC(c2ccc(CO)cc2)=CC1C1CC1 (configuration not stated)
6. CO[C@H]1O[C@H](CO)[C@@H](OC(=O)Nc2ccc(C(F)(F)F)cc2)[C@H](OC(=O)Nc2ccc3c(c2)OCO3)[C@@H]1OC(=O)Nc1ccc2c(c1)OCO2

1.52 (inactive)
0.0206 (inactive)
0.372 (inactive)
0.512 (inactive)
-0.107 (inactive)
3.6 (inactive)
